Reference source: patent US9434711B2

# TARGET UNDER TEST: UniProtKB Q1A7N1
# Sequence (Q1A7N1 1-1104): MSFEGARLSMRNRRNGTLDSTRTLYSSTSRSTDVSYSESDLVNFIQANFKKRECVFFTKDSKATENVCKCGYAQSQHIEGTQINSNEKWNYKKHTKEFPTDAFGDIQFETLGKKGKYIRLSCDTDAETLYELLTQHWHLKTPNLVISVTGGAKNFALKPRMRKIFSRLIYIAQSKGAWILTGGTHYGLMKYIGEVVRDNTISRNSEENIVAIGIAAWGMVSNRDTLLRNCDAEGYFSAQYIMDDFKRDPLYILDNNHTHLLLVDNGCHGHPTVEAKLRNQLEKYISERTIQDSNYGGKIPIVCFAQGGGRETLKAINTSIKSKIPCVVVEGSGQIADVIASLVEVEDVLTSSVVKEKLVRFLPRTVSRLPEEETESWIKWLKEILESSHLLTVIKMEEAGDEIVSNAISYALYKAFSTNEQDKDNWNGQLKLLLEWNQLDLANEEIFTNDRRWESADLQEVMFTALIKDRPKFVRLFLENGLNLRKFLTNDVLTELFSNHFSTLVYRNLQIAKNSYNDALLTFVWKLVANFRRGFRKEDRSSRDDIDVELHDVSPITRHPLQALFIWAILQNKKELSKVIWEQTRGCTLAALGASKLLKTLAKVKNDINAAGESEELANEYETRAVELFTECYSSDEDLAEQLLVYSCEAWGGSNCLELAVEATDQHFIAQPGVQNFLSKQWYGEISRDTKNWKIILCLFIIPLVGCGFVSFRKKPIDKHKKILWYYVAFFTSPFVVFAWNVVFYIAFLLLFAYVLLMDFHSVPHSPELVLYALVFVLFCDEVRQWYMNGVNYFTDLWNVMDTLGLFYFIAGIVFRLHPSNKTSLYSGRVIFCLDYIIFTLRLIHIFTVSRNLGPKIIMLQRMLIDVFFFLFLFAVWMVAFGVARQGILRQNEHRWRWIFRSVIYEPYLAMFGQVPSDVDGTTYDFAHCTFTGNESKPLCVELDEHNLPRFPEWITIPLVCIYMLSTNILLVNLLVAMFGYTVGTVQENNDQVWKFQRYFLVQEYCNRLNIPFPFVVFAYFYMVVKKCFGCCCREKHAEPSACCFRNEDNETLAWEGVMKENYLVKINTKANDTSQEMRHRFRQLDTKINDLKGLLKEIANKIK
# PROCEDURE SUMMARY: In Vitro Canine TRPM8 Functional Assay (Ca2+ fluorescence, icilin activation)
# Format: cell-based
# MEASUREMENT CONTEXT: compound at 0.2 μM; canine TRPM8, icilin activation; read-out: % Inh @ 0.2
MEASUREMENT KIND: inhibition at 0.2 µM (%)

{"COMPOUND": "CCCCN(c1sc2ccccc2c1C)S(=O)(=O)c1ccc(-c2noc(=O)[nH]2)cc1", "inhibition at 0.2 µM, %": 105}

A = COC(=O)c1ccc(S(=O)(=O)N(Cc2ccc(F)c(C(F)(F)F)c2)c2sc3ccccc3c2C=O)cc1
B = O=C1CC[C@H](CN(c2sc3ccccc3c2Br)S(=O)(=O)c2ccccc2)N1
Among A and B , whose measured inhibition at 0.2 µM is the smaller figure? // output: label of the selected item
B

I = CCCCN(c1sc2ccccc2c1Br)S(=O)(=O)c1ccc(C(=O)O)cc1
II = CCS(=O)(=O)N(CCOC)c1sc2ccccc2c1C
Among I and II , whose measured inhibition at 0.2 µM is the smaller figure? // output: label of the selected item
II

P = O=c1[nH]c(-c2ccc(S(=O)(=O)N(CCC(F)(F)F)c3sc4ccccc4c3Cl)cc2)no1
Q = CCS(=O)(=O)N(CC1CC1)c1sc2ccccc2c1C(C)O (stereo not shown)
Among P and Q , whose measured inhibition at 0.2 µM is the smaller figure? // output: label of the selected item
Q
(Q: 62%, P: 99%)

1 = CC(=O)c1c(N(Cc2ccc(F)c(C(F)(F)F)c2)S(=O)(=O)c2ccccc2)sc2ccccc12
2 = CC(=O)c1c(N(CCC(F)(F)F)S(=O)(=O)c2ccc(C(=O)O)cc2)sc2ccccc12
Between the entries labelled 1 and 2 , which has a larger inhibition at 0.2 µM value on record? // output: label of the selected item
1
(1: 102%, 2: 54%)
